- ASSAY_SUMMARY: qHTS assay to identify small molecule agonists of the peroxisome proliferator-activated receptor delta (PPARd) signaling pathway - cell viability counter screen (AID 743211); further: nearly all actives have a fitted effect of over 55% in size
- TEST_SETTINGS: PPARd-bla HEK293H viability, CellTiter-Glo luminescence, 17 h; series mostly up to 62.6 µM
Results filed as inconclusive are left out. Active and inactive are the calls of the source. The call rests on the fitted dose curve; in most records, active means well fitted cell-killing curve with a large enough effect in the repeat runs; inconclusive means weak or mixed curves; inactive means no such curve, though single readings can be large or run the other way.
The reply should name one outcome from true for active, false for inactive

Completed entries (count: 6):
CC(C)=CCO
false
C/C=C/C(=O)N(CC)c1ccccc1C
false
CC1(C)O[C@@H]2C[C@H]3[C@@H]4C[C@H](F)C5=CC(=O)C=C[C@]5(C)[C@@]4(F)[C@@H](O)C[C@]3(C)[C@]2(C(=O)CO)O1
false
Nc1cc([N+](=O)[O-])ccc1C(=O)O
false
COc1ccc(C(=O)c2ccccc2O)c(O)c1
false
OC[C@@H](O)[C@@H](O[C@@H]1O[C@H](CO)[C@H](O)[C@H](O)[C@H]1O)[C@H](O)[C@@H](O)CO
false

INPUT: Call for entry `Cc1ccc(C)c(O)c1` :
OUTPUT: false

INPUT: # repeat for `c1ccc2c(c1)ccc1ncccc12`
OUTPUT: false

INPUT: Same for `Nc1ccc2c(O)cc(S(=O)(=O)O)cc2c1`
OUTPUT: false

INPUT: Please give the result for `C=CN1CCCC1=O` too.
OUTPUT: false

INPUT: What do you have for `ClC/C=C/CCl` ?
OUTPUT: false

INPUT: Query `O=Cc1ccccc1C=O` next
OUTPUT: false
